Task for the reader: assign each of the following molecules its reported log10 of MIC.
# Test system: Pseudomonas aeruginosa
# ASSAY PROTOCOL: Antimicrobial activity against Pseudomonas aeruginosa by agar plate disk diffusion method
# Assay type: functional
Scale type: logarithmic (base 10). Underlying MIC unit: mg/L.

# MOLECULE, RECORDED NUMBER
rows = [
    ("CC1(C)S[C@@H]2[C@H](NC(=O)[C@H](N)c3ccccc3)C(=O)N2[C@H]1C(=O)O [AMPICILLIN]", 2.00),
    ("O=c1cc(Cc2c3ccccc3nc3ccccc23)c2ccc([N+](=O)[O-])cc2o1", 2.30),
    ("O=c1cc(Cc2c3ccccc3nc3ccccc23)c2ccccc2o1", 2.40),
    ("Cc1ccc2oc(=O)cc(Cc3c4ccccc4nc4ccccc34)c2c1", 2.10),
    ("Cc1ccc2c(Cc3c4ccccc4nc4ccccc34)cc(=O)oc2c1", 1.80),
    ("O=C(N[C@H](CO)[C@H](O)c1ccc([N+](=O)[O-])cc1)C(Cl)Cl [CHLORAMPHENICOL]", 1.70),
    ("CCn1cc(C(=O)O)c(=O)c2cc(F)c(N3CCNCC3)cc21 [NORFLOXACIN]", 1.00),
    ("O=c1cc(Cc2c3ccccc3nc3ccccc23)c2ccc(Cl)cc2o1", 2.70),
]

Quick request: log10 of MIC for each listed item, please.
1. O=c1cc(Cc2c3ccccc3nc3ccccc23)c2cc(Cl)ccc2o1
2. O=c1cc(Cc2c3ccccc3nc3ccccc23)c2cc(O)ccc2o1
3. O=c1cc(Cc2c3ccccc3nc3ccccc23)c2ccc(O)cc2o1

Ans:
1. 1.40
2. 2.00
3. 2.40

====

# Test system: Staphylococcus aureus
# ASSAY PROTOCOL: Antimicrobial activity against Staphylococcus aureus by agar plate disk diffusion method
# Type: functional
PARAMETER MEASURED: log10 of MIC (log10 of the value in µg/mL)
Scale type: logarithmic (base 10). Underlying MIC unit: µg/mL.

Worked cases, log10 of MIC given:
# STRUCTURE SMILES, SYSTEM NAME, log10 of MIC
data = [
    ("O=c1cc(Cc2c3ccccc3nc3ccccc23)c2cc(Cl)ccc2o1", "Staphylococcus aureus", 2.40),
    ("CCn1cc(C(=O)O)c(=O)c2cc(F)c(N3CCNCC3)cc21", "Staphylococcus aureus", 1.00),
    ("O=c1cc(Cc2c3ccccc3nc3ccccc23)c2cc(O)ccc2o1", "Staphylococcus aureus", 2.70),
    ("Cc1ccc2c(Cc3c4ccccc4nc4ccccc34)cc(=O)oc2c1", "Staphylococcus aureus", 2.70),
    ("CC1(C)S[C@@H]2[C@H](NC(=O)[C@H](N)c3ccccc3)C(=O)N2[C@H]1C(=O)O", "Staphylococcus aureus", 2.40),
]

Quick request: log10 of MIC for each listed item, please.
1. O=C(O)c1cn(C2CC2)c2cc(N3CCNCC3)c(F)cc2c1=O
2. O=C(N[C@H](CO)[C@H](O)c1ccc([N+](=O)[O-])cc1)C(Cl)Cl
3. O=c1cc(Cc2c3ccccc3nc3ccccc23)c2ccc(O)cc2o1
4. O=c1cc(Cc2c3ccccc3nc3ccccc23)c2ccccc2o1
5. O=c1cc(Cc2c3ccccc3nc3ccccc23)c2ccc(Cl)cc2o1
6. O=c1cc(Cc2c3ccccc3nc3ccccc23)c2ccc([N+](=O)[O-])cc2o1

Ans:
1. 1.70
2. 1.70
3. 2.70
4. 2.40
5. 1.70
6. 2.40

Q: Given the entry Cc1ccc2oc(=O)cc(Cc3c4ccccc4nc4ccccc34)c2c1 , report its measured log10 of MIC.
Ans: 2.10

Source of measurements: ChEMBL document CHEMBL1268823
